Entries and their Kd
TARGET_OF_ASSAY: S100A5
ASSAY: ITC; 310 K
# number only, unit µM dropped from output

BINDER: SEGLMNVLKKIYEDG [SIP (188-202) peptide]
OBS_VALUE: 21

Please find the next binder below.
Looking for the measured Kd of VLQTWLQDLLRRGLVRAAQ [TRPM4 (129-147) peptide] , can you help?
1.4
